Target: T1, recombinant human GREM1 (hGREM1-His; C-terminal 10His tagged, R&D, #5190-GR) (human, UniProt O60565 25-184)
T1 construct: range 25-184; also called recombinant human GREM1 with a C-terminal decahistidine tag
T1 sequence: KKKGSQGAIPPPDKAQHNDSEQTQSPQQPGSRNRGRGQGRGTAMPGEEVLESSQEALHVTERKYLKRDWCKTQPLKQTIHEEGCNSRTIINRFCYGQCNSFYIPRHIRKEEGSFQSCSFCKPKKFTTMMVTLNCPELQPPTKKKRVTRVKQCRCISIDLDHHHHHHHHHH
Assay: BLI Octet, mAb captured, 100 nM GREM1;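 note: octet Red96 biolayer interferometry at 25 °C in pH 7.4 HEPES saline buffer, antibodies held on anti-human IgG Fc capture biosensors, then exposed to GREM1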
Property name: Binding Signal with 30 sec Association (nm)
Express the result in nm but write the number alone.

Check out these entries, answers already filled in.
>  <Binder>
H4H2895N (antibody, human IgG4, V domains shown, H4H prefix = human IgG4 Fc) VH: EVQLVESGGGLVQPGGSLRLSCAASGFTVSSNYMSWVRQAPGKGLEWVSVIYSGGNTYYADSVKGRFTISRHNSKNTLYLQMNSLRAEDTAVYYCARDLGIKSDYWGQGTLVTVSS VL: EIVLTQSPDFQSVTPKEKVTITCRASQSIGTTLHWYQQKPDQSPKLLIKYVSQSLSGVPSRFSGSGSGTDFTLTINSLEAEDAATYYCHQSSSLPWTFGQGTKVEIK

>  <Binding Signal with 30 sec Association, nm>
0.15

$$$$
>  <Binder>
H4H2892N (antibody, human IgG4, V domains shown, H4H prefix = human IgG4 Fc) VH: QVQLVESGGGVVQPGRSLRLSCAASGFTFSSYGIHWVRQAPGKGLEWVAILWYDGSNKYYADSVKGRFTISRDNSKTTLYLQMNSLRAEDTAVYYCARENYNDLNFDLWGRGTLVTVSS VL: DIQLTQSPSFLSASVGDRVTITCWASQGISSYLAWYQHKPGKAPKLLIYAASTLQSGVPSRFSGSGSGIEFTLTISSLQPEDFATYYCQQLKSYPPWTFGQGTKVEIR

>  <Binding Signal with 30 sec Association, nm>
0.2

$$$$
>  <Binder>
H4H2783N2 (antibody, human IgG4, V domains shown, H4H prefix = human IgG4 Fc) VH: EVQLLESGGGLVQPGGSLRLSCAASGFTFSSYVMNWVRQAPGKGLEWVSAISGSGGSTYYADSVKGRSTISRDNSKNTLYLQMNSLRAEDTAIYYCAKGDIAAIVFDAFDIWGQGTVVTVSS VL: DIQMTQSPSSLSASVGDRVTITCQASQDISSALNWYQHKPGKAPKLLIYDASYLETGVPSRFSGSGSGTDFTFTISSLQPEDIATYYCQQYDNLPYTFGQGTKLEIK

>  <Binding Signal with 30 sec Association, nm>
0.29

$$$$
>  <Binder>
H4H6240P (antibody, human IgG4, V domains shown, H4H prefix = human IgG4 Fc) VH: QVQLVESGGGVVQPGRSLRLSCAASGFTFSSYGMHWVRQAPGKGLEWVAVIWYDGSNKYYADSVKGRFIISRDNSKNMMYLQMNSLRAEDTAVYYCAREDNWNYAFDYWGQGTLVTVSS VL: EIVMTQSPATLSVSPGERATLSCRASQSISSNLAWYQQKPGQAPRLLIYDSSTRATGIPARFSGSGSGTQFTLTISSLQSEDFALYYCQQYSNWPPFTFGPGTKVDIK

>  <Binding Signal with 30 sec Association, nm>
0.23

$$$$

Could you now look at the following binder, please?
Could you share which Binding Signal with 30 sec Association value was measured for H4H6269P (antibody, human IgG4, V domains shown, H4H prefix = human IgG4 Fc) VH: QVQLQESGPGLVKPSQTLSLTCTVSGGSISSGGYYWTWIRQHPGKGLEWIGYIYYSGSTYYNPSLKSRVTMSVDTSKNQFSLKLSSVTAADTAVYYCARLLDFDYWGQGTLVTVSS VL: AIQMTQSPSSLSASVGDRVTITCRASQGIRNDLGWYQQKPGKAPKLLIYAASSLQSGVPSRFSGSGSGRDFTLTISSLQPEDFASYYCLQDHNYPLTFGGGTKVEIK ? 0.15
